tested on: U251 CNS; assay: NCI-60 one-dose screen, 48 h (100 = growth as untreated, 0 = no growth, -100 = all killed); conditions: 10 µM unless noted
About 83,000 compounds went through this panel and 20% of them were active in at least one assay; those are over-represented in the sample as a whole. Calls of active or inactive are those of the source. Rule for the calls: active = growth percent below 10; inactive = the rest.
value_type: growth

The cases that follow already have their growth on record.
{"structure_as_smiles": "COc1ccc2c(c1)c(-c1noc(C(=O)c3cn(C)c4ncc(Br)cc34)n1)cn2C", "value_type": "growth", "reported_result": "68.6% (inactive)"}
{"structure_as_smiles": "CC1(C)CC[C@]23CC[C@]4(C)[C@H](CC[C@@H]5[C@@]6(C)C/C(=C/c7ccncc7)C(=O)C(C)(C)[C@@H]6CC[C@]54C)[C@H]2[C@H]1OC3=O", "value_type": "growth", "reported_result": "39.2% [100 µM] (inactive)"}

Item CC1=CC[C@@H]2C(C)(C)[C@@H](O)CC[C@@]2(C)[C@@H]1COc1ccc2ccc(=O)oc2c1 has what recorded growth?
67.9% (inactive)

Item FC(F)(F)c1ccc2c(c1)Sc1ccccc1N2 has what recorded growth?
91.5% (inactive)
